# TARGET_OR_TEST_SYSTEM: human immunoproteasome (i20S) β5 (Homo sapiens, UniProt P20618+P28062)
# TEST_SUMMARY: Proteasome subunit inhibition, i20S β5
# Format: biochemical
QUANTITY_NAME: pIC50
Quick note: pIC50 values are minus log10 of concentrations in mol/L.

CC(C)C[C@H](NC(=O)[C@@H]1CSCCOCCOCCC(=O)N[C@@H](C(C)C)C(=O)N1)C(=O)[C@@]1(C)CO1	5.31

Qu. Tell us which pIC50 value is on record for CC(C)C[C@H](NC(=O)[C@@H]1CS(=O)(=O)CCCCCCCCCC(=O)N[C@@H](C(C)C)C(=O)N1)C(=O)[C@@]1(C)CO1
Ans. 7.80

###

# TEST_SUMMARY: Plasma stability
# Assay type: in vitro ADME
# APPLIED_CONDITIONS: mouse, plasma, Plasma Stability % remaining, after 5 hr
// reported remaining at 5 h per item

Consider the worked cases shown below.
CC(C)C[C@H](NC(=O)C(CSc1c(F)c(F)c(F)c(F)c1F)NC(=O)[C@@H](NC(=O)c1cc(Cl)ccc1Cl)C(C)C)C(=O)[C@@]1(C)CO1 (stereo in doubt)	> 75%
CC(C)C[C@H](NC(=O)[C@@H]1CS(=O)(=O)CCCCCCCCCC(=O)N[C@@H](C(C)C)C(=O)N1)C(=O)[C@@]1(C)CO1	> 75%

Now consider the entry below.
Qu. In one line, give reported remaining at 5 h of the entry CC(C)C[C@H](NC(=O)C(CSc1c(F)c(F)c(F)c(F)c1F)NC(=O)[C@@H](NC(=O)CCc1ccccc1)C(C)C)C(=O)[C@@]1(C)CO1 (stereo in doubt) .
Ans. > 75%

###

# TARGET_OR_TEST_SYSTEM: human immunoproteasome (i20S) β2 (Homo sapiens, UniProt P40306+P49720)
# TEST_SUMMARY: Proteasome subunit inhibition, i20S β2
# Format: biochemical
# APPLIED_CONDITIONS: read-out: i20S β2 IC50 ± SD; read 60 to 90 minutes after start
Each entry below lists one item and its recorded pIC50 value.
Kindly note that pIC50 refers to -log10 of the concentration in mol/L and answer with the value alone.

// worked examples, pIC50 included
CC(C)C[C@H](NC(=O)[C@@H]1Cc2c(F)c(F)c(c(F)c2F)S(=O)(=O)c2cccc(c2)CC(=O)N[C@@H](C(C)C)C(=O)N1)C(=O)[C@@]1(C)CO1 [Compound 11]	6.08
CC(C)C[C@H](NC(=O)[C@@H]1Cc2c(F)c(F)c(c(F)c2F)Sc2cccc(c2)CC(=O)N[C@@H]([C@@H](C)O)C(=O)N1)C(=O)[C@@]1(C)CO1 [Compound 14]	5.97
CC(C)C[C@H](NC(=O)[C@@H]1Cc2c(F)c(F)c(c(F)c2F)Sc2cccc(c2)CC(=O)NC(C)(C)C(=O)N1)C(=O)[C@@]1(C)CO1 [Compound 31]	5.97
CC(C)C[C@H](NC(=O)[C@@H]1Cc2c(F)c(F)c(c(F)c2F)Sc2cccc(c2)CC(=O)N[C@@H](C(C)C)C(=O)N1)C(=O)[C@@]1(C)CO1 [Compound 10]	6.33
CC(C)C[C@H](NC(=O)[C@@H]1CSCCCCCCCCCC(=O)N[C@@H](C(C)C)C(=O)N1)C(=O)[C@@]1(C)CO1 [Compound 39]	7.34

In the following, a different compound is considered.
Qu. Tell me pIC50 of CC(C)C[C@H](NC(=O)[C@@H]1Cc2ccc(cc2)OCCCCCC(=O)N[C@@H](C(C)C)C(=O)N1)C(=O)[C@@]1(C)CO1 [Compound 33] when tested on human immunoproteasome (i20S) β2 (Homo sapiens, UniProt P40306+P49720).
Ans. 7.17

###

# TEST_SUMMARY: PAMPA-BBB permeability assay
# APPLIED_CONDITIONS: PAMPA
QUANTITY_NAME: recovery (%)
Reply with just the number (in %).

Qu. Consider the compound Cc1ncc2n1-c1ccc(Cl)cc1C(c1ccccc1F)=NC2 [Midazolam, reference compound] . State its measured recovery.
Ans. 84

###

# TEST_SUMMARY: Caco-2 cell permeability and efflux
# Assay type: in vitro ADME, human
# APPLIED_CONDITIONS: human, Caco-2
QUANTITY_NAME: Papp A→B (×10⁻⁶ cm/s)
// note: answer is a bare numeric in ×10⁻⁶ cm/s

Look over these answered cases.
CC(C)C[C@H](NC(=O)[C@@H]1CSCCOCCOCCC(=O)N[C@@H](C(C)C)C(=O)N1)C(=O)[C@@]1(C)CO1	0.75
C[C@H]1O[C@@H](O[C@H]2[C@@H](O)C[C@H](O[C@H]3[C@@H](O)C[C@H](O[C@H]4CC[C@@]5(C)[C@H](CC[C@@H]6[C@@H]5C[C@@H](O)[C@]5(C)[C@@H](C7=CC(=O)OC7)CC[C@]65O)C4)O[C@@H]3C)O[C@@H]2C)C[C@H](O)[C@@H]1O [Digoxin, reference compound]	1.3

Continue with the next compound.
Qu. Quick one: give measured Papp A→B for CC(C)C[C@H](NC(=O)[C@@H]1CS(=O)(=O)CCCCCCCCCC(=O)N[C@@H](C(C)C)C(=O)N1)C(=O)[C@@]1(C)CO1
Ans. 10.1

###

# System: human foreskin fibroblasts (HFF-1) cell line
# TEST_SUMMARY: Cytotoxicity against HFF-1 cells
# Type: cell-based
# APPLIED_CONDITIONS: read-out: HFF-1 IC50; non-cancerous fibroblasts
QUANTITY_NAME: IC50
Respond with the figure and its unit, in that order.

CC(C)C[C@H](NC(=O)[C@@H]1Cc2c(F)c(F)c(c(F)c2F)S(=O)(=O)c2cccc(c2)CC(=O)N[C@@H](C(C)C)C(=O)N1)C(=O)[C@@]1(C)CO1 [Compound 11]	0.085 µM

Next up:
Qu. Output reported IC50 of the compound CC(C)C[C@H](NC(=O)[C@@H]1Cc2c(F)c(F)c(c(F)c2F)Sc2cccc(c2)CC(=O)NC(C)(C)C(=O)N1)C(=O)[C@@]1(C)CO1 [Compound 31] on human foreskin fibroblasts (HFF-1) cell line.
Ans. 0.122 µM

###

# System: Caco-2 cells
# TEST_SUMMARY: Caco-2 cell permeability and efflux
# Assay type: in vitro ADME, human
# APPLIED_CONDITIONS: Caco-2, basolateral to apical
Recorded measurements of Pe (B-A), one per entry

CC(C)C[C@H](NC(=O)[C@@H]1CSCCCCCCCCCC(=O)N[C@@H](C(C)C)C(=O)N1)C(=O)[C@@]1(C)CO1 [Compound 39]	14.6 10^−6 cm/sec

Qu. Identify the reported Pe (B-A) for the following entry. CC(C)C[C@H](NC(=O)[C@@H]1Cc2c(F)c(F)c(c(F)c2F)Sc2cccc(c2)CC(=O)N[C@@H](C(C)C)C(=O)N1)C(=O)[C@@]1(C)CO1 [Compound 10]
Ans. 34.4 10^−6 cm/sec

Qu. Supply recorded Pe (B-A) for CC(C)C[C@H](NC(=O)[C@@H]1Cc2c(F)c(F)c(c(F)c2F)S(=O)(=O)c2cccc(c2)CC(=O)N[C@@H](C(C)C)C(=O)N1)C(=O)[C@@]1(C)CO1 [Compound 11] here.
Ans. 45.4 10^−6 cm/sec

Qu. Look up and report measured Pe (B-A) for this entry: CC(C)C[C@H](NC(=O)[C@@H]1Cc2c(F)c(F)c(c(F)c2F)Sc2cccc(c2)CC(=O)NC(C)(C)C(=O)N1)C(=O)[C@@]1(C)CO1 [Compound 31]
Ans. 63.0 10^−6 cm/sec

###

Measured recovery, listed per entry for reference.
# TEST_SUMMARY: Caco-2 cell permeability and efflux
# Type: in vitro ADME, human
# APPLIED_CONDITIONS: human, Caco-2, % Recovery (A-B), Caco-2, A-B direction
Answer format reminder: number followed by unit.

Record excerpt, results attached:
CC(C)C[C@H](NC(=O)[C@@H]1CS(=O)(=O)CCCCCCCCCC(=O)N[C@@H](C(C)C)C(=O)N1)C(=O)[C@@]1(C)CO1 [Compound 40]	91%
CC(C)C[C@H](NC(=O)[C@@H]1CSCCOCCOCCC(=O)N[C@@H](C(C)C)C(=O)N1)C(=O)[C@@]1(C)CO1 [Compound 41]	102%

Let's switch to this compound now.
Qu. Item CC(C)C[C@H](NC(=O)C(CSc1c(F)c(F)c(F)c(F)c1F)NC(=O)[C@@H](NC(=O)c1cc(Cl)ccc1Cl)C(C)C)C(=O)[C@@]1(C)CO1 (stereo in doubt) [Compound 4] : provide recovery
Ans. 27%

###

# System: H460 cell line
# TEST_SUMMARY: Cytotoxicity against H460 cells
# Format: cell-based
# APPLIED_CONDITIONS: read-out: H460 IC50; non-small cell lung cancer cell line
QUANTITY_NAME: pIC50
Please report pIC50 as the negative decimal logarithm of the molar concentration, giving only the number.

CC(C)C[C@H](NC(=O)[C@@H]1Cc2ccc(cc2)S(=O)(=O)CCCCCC(=O)NC(C(C)C)C(=O)N1)C(=O)[C@@]1(C)CO1 (stereo partly shown)	6.54
CC(C)C[C@H](NC(=O)[C@@H]1Cc2c(F)c(F)c(c(F)c2F)Sc2cccc(c2)CC(=O)NC(C)(C)C(=O)N1)C(=O)[C@@]1(C)CO1 [Compound 20]	6.08
CC(C)C[C@H](NC(=O)[C@@H]1Cc2c(F)c(F)c(c(F)c2F)Sc2cccc(c2)CC(=O)N[C@@H](C(C)(C)C)C(=O)N1)C(=O)[C@@]1(C)CO1	5.61

Qu. Read off the recorded pIC50 for CC(C)C[C@H](NC(=O)[C@@H]1Cc2c(F)c(F)c(c(F)c2F)S(=O)(=O)c2cccc(c2)CC(=O)N[C@@H]([C@H](C)O)C(=O)N1)C(=O)[C@@]1(C)CO1
Ans. 6.44
